Biological target: PI3K β (p110β/p85α) (Homo sapiens, UniProt P42338)
Construct: purchased Upstate / Millipore Corporation
Sequence (P42338 whole entry): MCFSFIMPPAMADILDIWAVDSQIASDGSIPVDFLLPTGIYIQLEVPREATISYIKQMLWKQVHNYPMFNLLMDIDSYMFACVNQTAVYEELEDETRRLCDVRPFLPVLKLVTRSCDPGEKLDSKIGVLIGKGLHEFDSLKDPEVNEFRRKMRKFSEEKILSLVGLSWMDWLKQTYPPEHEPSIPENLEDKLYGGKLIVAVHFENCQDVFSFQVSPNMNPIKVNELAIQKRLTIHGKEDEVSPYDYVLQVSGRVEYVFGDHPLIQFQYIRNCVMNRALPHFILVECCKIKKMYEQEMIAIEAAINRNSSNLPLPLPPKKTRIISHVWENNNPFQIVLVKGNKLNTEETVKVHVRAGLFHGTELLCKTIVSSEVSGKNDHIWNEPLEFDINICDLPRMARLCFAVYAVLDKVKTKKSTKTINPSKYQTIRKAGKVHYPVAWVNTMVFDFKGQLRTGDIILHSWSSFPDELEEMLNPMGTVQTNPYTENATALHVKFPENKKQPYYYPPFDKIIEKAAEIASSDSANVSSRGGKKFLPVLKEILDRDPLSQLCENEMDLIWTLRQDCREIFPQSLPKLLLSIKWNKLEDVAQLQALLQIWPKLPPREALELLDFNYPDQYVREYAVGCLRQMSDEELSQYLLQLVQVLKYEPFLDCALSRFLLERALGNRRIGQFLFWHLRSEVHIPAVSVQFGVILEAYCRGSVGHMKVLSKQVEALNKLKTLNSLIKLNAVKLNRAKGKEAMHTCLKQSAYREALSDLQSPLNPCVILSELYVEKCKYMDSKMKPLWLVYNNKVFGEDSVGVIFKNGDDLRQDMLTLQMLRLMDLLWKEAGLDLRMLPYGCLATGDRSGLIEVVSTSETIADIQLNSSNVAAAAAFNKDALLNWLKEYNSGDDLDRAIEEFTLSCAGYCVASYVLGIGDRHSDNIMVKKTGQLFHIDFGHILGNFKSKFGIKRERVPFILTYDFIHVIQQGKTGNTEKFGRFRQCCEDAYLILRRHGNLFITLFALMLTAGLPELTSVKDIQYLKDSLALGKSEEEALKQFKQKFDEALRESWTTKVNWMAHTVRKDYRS
Sequence (P27986 whole entry partner): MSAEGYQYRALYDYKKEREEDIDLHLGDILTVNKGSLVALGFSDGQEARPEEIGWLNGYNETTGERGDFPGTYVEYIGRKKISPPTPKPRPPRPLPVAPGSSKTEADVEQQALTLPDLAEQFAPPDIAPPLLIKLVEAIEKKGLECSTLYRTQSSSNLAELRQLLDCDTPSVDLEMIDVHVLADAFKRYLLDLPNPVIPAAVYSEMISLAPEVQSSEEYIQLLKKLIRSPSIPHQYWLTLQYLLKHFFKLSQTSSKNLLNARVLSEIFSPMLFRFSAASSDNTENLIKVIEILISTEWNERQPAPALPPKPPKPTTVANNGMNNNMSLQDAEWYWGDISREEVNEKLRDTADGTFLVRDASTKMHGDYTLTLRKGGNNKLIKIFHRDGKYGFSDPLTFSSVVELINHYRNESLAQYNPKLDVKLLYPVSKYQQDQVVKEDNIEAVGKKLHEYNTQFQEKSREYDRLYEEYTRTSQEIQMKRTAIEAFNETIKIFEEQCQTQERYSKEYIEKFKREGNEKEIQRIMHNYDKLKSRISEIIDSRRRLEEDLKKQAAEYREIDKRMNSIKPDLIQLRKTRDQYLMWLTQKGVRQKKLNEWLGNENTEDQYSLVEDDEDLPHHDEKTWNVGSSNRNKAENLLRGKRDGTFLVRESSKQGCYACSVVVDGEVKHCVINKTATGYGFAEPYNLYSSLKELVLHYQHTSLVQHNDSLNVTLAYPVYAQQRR
Assay: PI 3-Kinase (human) HTRF assay, PI3K β
Type: biochemical
Settings: Table 4 (PI3K α inhibitors); read-out: PI3K β IC50
Recorded IC50 by entry
measurement.type: IC50

[[record]]
compound = "C[C@@H](N)C(=O)N1CCN(c2cnc3ccc(-c4ccc5oc(N)nc5c4)nc3c2)CC1 [Compound 590]"
result = "< 0.1 µM"

[[record]]
compound = "C[C@@H]1CN(c2cnc3ccc(-c4ccc5oc(N)nc5c4)nc3n2)CCN1 [Compound 578]"
result = "< 0.1 µM"

[[record]]
compound = "CC(C)(N)C(=O)N1CCN(c2ccc3ncc(-c4ccc5oc(N)nc5c4)cc3n2)CC1 [Compound 633]"
result = "> 10 µM"

[[record]]
compound = "Nc1nc2cc(-c3cnc4ccc(N5CCOCC5)nc4c3)ccc2o1 [Compound 624]"
result = "> 10 µM"

